assay: Experimental lipophilicity by RP-TLC; conditions: RP-TLC, RP-18 F254S, acetone / Tris buffer pH 7.4, extrapolated to zero acetone
RM0 overview
Lab note: jot down the number only; don't add units.

- compound: "C=C(C)[C@@H]1CC[C@]2(COC(=O)CCC(=O)N3CCCCC3)CC[C@]3(C)C(CCC4[C@@]5(C)CC[C@H](O)C(C)(C)C5CC[C@]43C)C12 (stereo partly shown) [2c]"
  RM0: 5.728

State the recorded RM0 for this entry: C#CCNC(=O)C(C)=CC(=O)OCC12CCC(C(=C)C)C1C1CCC3C4(C)CCC(O)C(C)(C)C4CCC3(C)C1(C)CC2 (stereo not shown) [3a]
5.326

Record: C=C(C)[C@@H]1CC[C@]2(COC(=O)CCC(=O)N3CCOCC3)CC[C@]3(C)C(CCC4[C@@]5(C)CC[C@H](O)C(C)(C)C5CC[C@]43C)C12 (stereo partly shown) [2b]
5.024

Record: C=C(C)[C@@H]1CC[C@]2(COC(=O)CCC(=O)N3CCSCC3)CC[C@]3(C)C(CCC4[C@@]5(C)CC[C@H](O)C(C)(C)C5CC[C@]43C)C12 (stereo partly shown) [2d]
5.898

Record: C=C(C)[C@@H]1CC[C@]2(COC(=O)c3cccc(C(=O)N4CCOCC4)c3)CC[C@]3(C)C(CCC4[C@@]5(C)CC[C@H](O)C(C)(C)C5CC[C@]43C)C12 (stereo partly shown) [7b]
5.153

Record: c1ccc2cc3ccccc3cc2c1 [anthracene, reference compound]
3.10

Record: C=C(C)[C@@H]1CC[C@]2(COC(=O)c3ccccc3C(=O)O)CC[C@]3(C)C(CCC4[C@@]5(C)CC[C@H](O)C(C)(C)C5CC[C@]43C)C12 (stereo partly shown) [compound 6]
5.979

Record: C#CC1(NC(=O)CCCCCCCCCC(=O)OC[C@]23CC[C@@H](C(=C)C)C2C2CCC4[C@@]5(C)CC[C@H](O)C(C)(C)C5CC[C@@]4(C)[C@]2(C)CC3)CCCCC1 (stereo partly shown) [5e]
6.093

Record: C#CCNC(=O)CCCC(=O)OC[C@]12CC[C@@H](C(=C)C)C1C1CCC3[C@@]4(C)CC[C@H](O)C(C)(C)C4CC[C@@]3(C)[C@]1(C)CC2 (stereo partly shown) [4a]
5.158

* * *

Calculated Selectivity Index SI, MV4-11 overview
system: MV4-11 cells; assay: Antiproliferative activity, MTT assay, MV4-11 leukemia cells; assay type: cell-based, human; conditions: IC50 BALB/3T3 / IC50 MV4-11
Lab note: jot down the number only; don't add units.

- molecule: "C=C(C)[C@@H]1CC[C@]2(COC(=O)CCCC(=O)N3CCSCC3)CC[C@]3(C)C(CCC4[C@@]5(C)CC[C@H](O)C(C)(C)C5CC[C@]43C)C12 (stereo partly drawn)"
  system_name: "MV4-11 cells"
  Calculated Selectivity Index SI, MV4-11: 7.1
- molecule: "C=C(C)[C@@H]1CC[C@]2(COC(=O)CCC(=O)N3CCOCC3)CC[C@]3(C)C(CCC4[C@@]5(C)CC[C@H](O)C(C)(C)C5CC[C@]43C)C12 (stereo partly drawn)"
  system_name: "MV4-11 cells"
  Calculated Selectivity Index SI, MV4-11: 6.4

State the recorded Calculated Selectivity Index SI, MV4-11 for this entry: C=C(C)[C@@H]1CC[C@]2(COC(=O)CCC(=O)O)CC[C@]3(C)C(CCC4[C@@]5(C)CC[C@H](O)C(C)(C)C5CC[C@]43C)C12 (stereo partly drawn)
2.3
